This collection of values is drawn from patent US8129499B2.

measurement_notes: in vitro
assay_context: dog, MDCK cells
No end group written: not given here.
assay_readout: viability at 24 h, 75 µM (%)
Give your result in % as a bare value.

viability at 24 h, 75 µM reported for this sequence RRKKVALLAVLLALLA [SEQ. ID. NO: 32, RRKKVALLAVLLALLA] : 20

----------
No end group written: not given here.
# EC50 measurements, system: purified A/PR/8/34

Case RRKKAAAAAAAAA [SEQ ID NO: 49, RRKKAAAAAAAAA] , purified A/PR/8/34, EC50 recorded as ~7000 nM

Case RRKKLLAVLLALLA [SEQ ID NO: 44, RRKKLLAVLLALLA] , purified A/PR/8/34, EC50 recorded as 3000 nM

Case RRKKLAVLLALLA [SEQ. ID. NO: 45, RRKKLAVLLALLA] , purified A/PR/8/34, EC50 recorded as 3000 nM
